Catalogue of compounds with associated IC10
Tested on: Caco-2
experiment summary: Antiproliferative activity against human Caco-2 cells assessed as cell viability by MTT assay after 48 hrs
Format: functional
assay context: Homo sapiens, Caco-2, 48 h; read-out: IC10
readout: IC10

{"compound": "CN1CCN(CCCOc2ccc(C3OC(c4ccccc4Cl)C(c4ccccc4Cl)O3)cc2)CC1 (configuration not stated)", "system tested": "Caco-2", "endpoint result": "19.5 µM"}
{"compound": "c1ccc(C(CCCCN2CCN(CCCOc3ccc(C4O[C@@H](c5ccccc5)[C@H](c5ccccc5)O4)cc3)CC2)c2ccccc2)cc1", "system tested": "Caco-2", "endpoint result": "17.1 µM"}
{"compound": "c1ccc(C(CCN2CCN(CCCOc3ccc(C4OC(c5ccccc5)C(c5ccccc5)O4)cc3)CC2)c2ccccc2)cc1 (configuration not stated)", "system tested": "Caco-2", "endpoint result": "18.5 µM"}
{"compound": "CN1CCN(CCCN2c3ccccc3Sc3ccc(C(F)(F)F)cc32)CC1", "system tested": "Caco-2", "endpoint result": "11.3 µM"}
{"compound": "CC1OC(c2ccccc2)(c2ccccc2)OCC1CN1CCN(C)CC1 (configuration not stated)", "system tested": "Caco-2", "endpoint result": "9.7 µM"}
{"compound": "c1ccc(C(CCCCN2CCN(CCCOc3ccc(C4O[C@H](c5ccccc5)[C@@H](c5ccccc5)O4)cc3)CC2)c2ccccc2)cc1", "system tested": "Caco-2", "endpoint result": "16.2 µM"}
{"compound": "OCCN1CCN(CCCOc2ccc(C3OC(c4ccccc4)C(c4ccccc4)O3)cc2)CC1 (configuration not stated)", "system tested": "Caco-2", "endpoint result": "76.6 µM"}
{"compound": "c1ccc(C(CCCCN2CCN(CCOc3ccc(C4OC(c5ccccc5)C(c5ccccc5)O4)cc3)CC2)c2ccccc2)cc1 (configuration not stated)", "system tested": "Caco-2", "endpoint result": "14.7 µM"}
{"compound": "c1ccc(C(CCCCN2CCN(CCCCC3COC(c4ccccc4)(c4ccccc4)O3)CC2)c2ccccc2)cc1 (configuration not stated)", "system tested": "Caco-2", "endpoint result": "5.85 µM"}
{"compound": "OCCN1CCN(CCCCC2COC(c3ccccc3)(c3ccccc3)O2)CC1 (configuration not stated)", "system tested": "Caco-2", "endpoint result": "98.3 µM"}
{"compound": "CN1CCN(CCOc2ccc(C3OC(c4ccccc4)C(c4ccccc4)O3)cc2)CC1 (configuration not stated)", "system tested": "Caco-2", "endpoint result": "8.6 µM"}
{"compound": "c1ccc(C(CN2CCN(CCCOc3ccc(C4OC(c5ccccc5)C(c5ccccc5)O4)cc3)CC2)c2ccccc2)cc1 (configuration not stated)", "system tested": "Caco-2", "endpoint result": "6.1 µM"}
{"compound": "c1ccc(C2OC(c3ccc(OCCCN4CCCCC4)cc3)OC2c2ccccc2)cc1 (configuration not stated)", "system tested": "Caco-2", "endpoint result": "15.3 µM"}
{"compound": "c1ccc(C(CCCCN2CCN(CCCCOc3ccc(C4OC(c5ccccc5)C(c5ccccc5)O4)cc3)CC2)c2ccccc2)cc1 (configuration not stated)", "system tested": "Caco-2", "endpoint result": "17.5 µM"}
{"compound": "CC1OC(c2ccccc2)(c2ccccc2)OCC1CN1CCN(CCCCC(c2ccccc2)c2ccccc2)CC1 (configuration not stated)", "system tested": "Caco-2", "endpoint result": "6.1 µM"}
{"compound": "c1ccc(C(CCCCN2CCN(CCCOc3ccc(C4O[C@H](c5ccccc5)[C@H](c5ccccc5)O4)cc3)CC2)c2ccccc2)cc1 (some centres not stated)", "system tested": "Caco-2", "endpoint result": "16.8 µM"}
{"compound": "CN1CCN(CCCOc2ccc(C3O[C@H](c4ccccc4)[C@H](c4ccccc4)O3)cc2)CC1 (some centres not stated)", "system tested": "Caco-2", "endpoint result": "21.1 µM"}

###

Here, each record is paired with measured IC10 data.
System: Caco-2
experiment summary: Antiproliferative activity against human Caco-2 cells assessed as cell viability by MTT assay after 48 hrs
Format: functional
assay context: Homo sapiens, Caco-2, 48 h; read-out: IC10

{"molecule": "CN1CCN(CCCOc2ccc(C3O[C@@H](c4ccccc4)[C@H](c4ccccc4)O3)cc2)CC1", "IC10 / µM": 19.9}
{"molecule": "c1ccc(C(CCCN2CCN(CCCOc3ccc(C4OC(c5ccccc5)C(c5ccccc5)O4)cc3)CC2)c2ccccc2)cc1 (stereo not given)", "IC10 / µM": 12.4}
{"molecule": "c1ccc(C2(c3ccccc3)OCC(CCCCN3CCCCC3)O2)cc1 (stereo not given)", "IC10 / µM": 18.1}
{"molecule": "CN1CCN(CCCCC2COC(c3ccccc3)(c3ccccc3)O2)CC1 (stereo not given)", "IC10 / µM": 10.5}
{"molecule": "CN1CCN(CCCCOc2ccc(C3OC(c4ccccc4)C(c4ccccc4)O3)cc2)CC1 (stereo not given)", "IC10 / µM": 13.8}

Every entry's value here was drawn from ChEMBL document CHEMBL1147167.
